Source: patent US11434205B2

# Test system: rats
# Assay explanation: Pharmacological characteristics at equivalent doses (2×ED50) in rats
# Stated conditions: 2×ED50, tail vein, animals affected/animals
Metric name: Adverse reactions: Tremor (incidence)

C[C@H](c1ccccc1)n1c(Cl)nc(Cl)c1C(=O)OC1CSC1	(4/8), Red
CCCC(CCC)OC(=O)c1cncn1[C@H](C)c1ccccc1	Tremor (2/8), Red urine
CCC(CC)OC(=O)c1c(F)ncn1[C@H](C)c1ccccc1	(4/8), Red
C#CC1(COC(=O)c2cncn2[C@H](C)c2ccccc2)CCC1	Tremor (2/8), Red urine

* * *

# System: rats
# Assay explanation: Pharmacological characteristics at equivalent doses (2×ED50) in rats
# Stated conditions: 2×ED50, tail vein, time of LORR
Metric name: Onset time (min)
Express your answer in min, writing the number without its unit.

Q: Write down the reported Onset time of COC(=O)C1(OC(=O)c2cncn2[C@H](C)c2ccccc2)CC1 [CPMM, cyclopropyl methoxycarbonyl methylate, reference compound] , test system: rats.
Result: 0.26

Q: Write down the reported Onset time of C[C@H](c1ccccc1)n1c(Cl)nc(Cl)c1C(=O)OC1COC1 [Compound E132] , test system: rats.
Result: 0.18

Q: Write down the reported Onset time of C[C@H](c1ccccc1)n1cncc1C(=O)OCCC1CCC1 [Compound A18] , test system: rats.
Result: 0.20

Q: Write down the reported Onset time of CC#CC1(OC(=O)c2c(F)ncn2[C@H](C)c2ccccc2)CSC1 [Compound E91] , test system: rats.
Result: 0.48

Q: Write down the reported Onset time of C=CC(C)(C)OC(=O)c1c(F)ncn1[C@H](C)c1ccccc1 [Compound E32] , test system: rats.
Result: 0.30

Q: Write down the reported Onset time of C[C@H](c1ccccc1)n1cncc1C(=O)OCC1(C(F)F)CCC1 [Compound A19] , test system: rats.
Result: 0.36

Q: Write down the reported Onset time of [2H]C#CC(C)(C)OC(=O)c1cncn1[C@H](C)c1ccccc1 [Compound D16] , test system: rats.
Result: 0.36

Q: Write down the reported Onset time of CC#CC(C)OC(=O)c1c(Cl)ncn1[C@H](C)c1ccccc1 (stereo partly drawn) [Compound E116] , test system: rats.
Result: 0.61

Q: Write down the reported Onset time of CCC(C)(CC)OC(=O)c1c(F)ncn1[C@H](C)c1ccccc1 [Compound E30] , test system: rats.
Result: 0.60

Q: Write down the reported Onset time of C=CC(CC)(CC)OC(=O)c1cncn1[C@H](C)c1ccccc1 [Compound D24] , test system: rats.
Result: 0.56

Q: Write down the reported Onset time of CC#CC1(OC(=O)c2cncn2[C@H](C)c2ccccc2)COC1 [Compound D39] , test system: rats.
Result: 0.20

Q: Write down the reported Onset time of C=C=CC(C)(C)OC(=O)c1c(F)ncn1[C@H](C)c1ccccc1 [Compound E19] , test system: rats.
Result: 0.34

Q: Write down the reported Onset time of C[C@H](c1ccccc1)n1cncc1C(=O)OC(C)(C)C [Compound C18] , test system: rats.
Result: 0.25

Q: Write down the reported Onset time of CC#CC(C)OC(=O)c1c(F)ncn1[C@H](C)c1ccccc1 (stereo partly drawn) [Compound E16] , test system: rats.
Result: 0.30

Q: Write down the reported Onset time of C[C@H](c1ccccc1)n1cncc1C(=O)OCC1(C)COC1 [Compound B5] , test system: rats.
Result: 0.11

Q: Write down the reported Onset time of C=C=CC1(OC(=O)c2cncn2[C@H](C)c2ccccc2)CCC1 [Compound D13] , test system: rats.
Result: 0.25

Q: Write down the reported Onset time of CC#CC1(OC(=O)c2cncn2[C@H](C)c2ccccc2)CCSC1 (stereo partly drawn) [Compound D30] , test system: rats.
Result: 0.43

Q: Write down the reported Onset time of CSCOC(=O)c1cncn1[C@H](C)c1ccccc1 [Compound C26] , test system: rats.
Result: 0.30
